Where these numbers come from: paper PMC3631442

- experimental target: Bcl-xL (Homo sapiens, UniProt Q07817)
- Sequence (Q07817 whole entry): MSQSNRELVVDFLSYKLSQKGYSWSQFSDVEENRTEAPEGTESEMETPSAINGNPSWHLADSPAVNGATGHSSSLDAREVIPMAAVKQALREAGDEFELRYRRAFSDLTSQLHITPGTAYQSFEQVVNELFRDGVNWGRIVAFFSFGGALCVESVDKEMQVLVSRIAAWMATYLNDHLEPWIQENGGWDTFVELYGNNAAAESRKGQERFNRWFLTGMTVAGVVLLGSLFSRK
- method summary: Fluorescence polarization competition with fluoresceinated Bim BH3
- Assay type: binding
pKi: −log10 of the molar value.
measurement type: pKi

So what does the record say about pKi for Ac-RPEIWIAQGLRRIGDTWNAYYAR-NH2 [FW1] ?
7.52 to 7.70
